// values below are reported solubility
Test: aqueous solubility (LC/MS- or HPLC-based assay)
Assay type: physicochemical
Conditions: aqueous medium, pH 6.5, aqueous buffer, pH 6.5; read-out: Solubility pH 6.5

Worked set:
{"structureNotation": "COC(=O)c1c[nH]c2cc(N3CCN(c4ccccc4)CC3)c(C)cc2c1=O", "experimentalEndpoint": "solubility", "measuredValue": "40 to 59.9 µM"}
{"structureNotation": "COC(=O)c1c[nH]c2cc(CN3CCN(c4ccccc4)CC3)c(OC)cc2c1=O", "experimentalEndpoint": "solubility", "measuredValue": "≥ 80 µM"}

# compound `COC(=O)c1c[nH]c2cc(N3CCN(Cc4ccccc4)CC3)ccc2c1=O` ; its solubility = 60 to 80 µM

# solubility (compound: `COC(=O)c1c[nH]c2cc(CCN3CCN(Cc4ccccc4)CC3)ccc2c1=O` ) is ≥ 80 µM

Please fill in: solubility reported for `COC(=O)c1c[nH]c2cc(CN3CCN(Cc4ccccc4)CC3)c(OC)cc2c1=O` = 60 to 79.9 µM
